The measurements presented in this section are drawn from paper PMC5447332.

# Assay overview: Pharmacokinetics of BEZ235 in plasma, phase Ib combination with everolimus
# Assay type: in vivo, human (patients with advanced solid tumors)
# Study conditions: human, plasma, po, Tmax, BEZ235 200 mg/d + everolimus 2.5 mg/d oral; day 1; plasma; mean ± SE
Measured parameter: Tmax (h)
Could you give me the number in h? Just the number is fine.

Note to self: Tmax recorded for Cn1c(=O)n(-c2ccc(C(C)(C)C#N)cc2)c2c3cc(-c4cnc5ccccc5c4)ccc3ncc21 was 3.8

###

# Assay overview: Pharmacokinetics of BEZ235 in plasma, phase Ib combination with everolimus
# Format: in vivo, human (patients with advanced solid tumors)
# Study conditions: human, plasma, po, AUC 0-∞, BEZ235 200 mg/d + everolimus 2.5 mg/d oral; day 1; plasma; mean ± SE
Measured parameter: AUC(0-inf) (ng·h/mL)
Could you give me the number in ng·h/mL? Just the number is fine.

Note to self: AUC(0-inf) recorded for Cn1c(=O)n(-c2ccc(C(C)(C)C#N)cc2)c2c3cc(-c4cnc5ccccc5c4)ccc3ncc21 [BEZ235, dactolisib] was 468
